compounds and their reported GI50
- Tested on: 786-0
- PROCEDURE_TEXT: NCI tumour cell line growth inhibition, 48 h
The source made the active and inactive calls. No stated cut-off is given here; in the data, active = GI50 up to about 1.1 µM and inactive = higher.

# COMPOUND, GI50
rows = [
    ("Cc1cccc2c1C/C(=C1\\CCc3c(C)cccc31)C2=O", "90.4 µM (inactive)"),
    ("CCOC(=O)C(NC(=O)CC(C)C)(Nc1ccc(S(=O)(=O)Nc2nc(C)cc(C)n2)cc1)C(F)(F)F (stereo not given)", "> 100 µM (inactive)"),
    ("[N-]=[N+]=NCC1OCC(O)C(OCc2ccccc2)C1OCc1ccccc1 (stereo not given)", "81.5 µM (inactive)"),
    ("O=C(CCCN1CCC2(CC1)NC(=O)c1ccccc1O2)c1ccc(F)cc1", "> 100 µM (inactive)"),
    ("COc1cc(/C=C2/C(=O)N(C(=O)c3ccccc3O)N=C2C)cc(OC)c1OC", "2.25 µM (inactive)"),
]

Need GI50 of COc1ccc(C2=C(Cl)c3cc(OC)c(OC)cc3C2=O)cc1OC , thanks.
3.43 µM (inactive)

Further, for CCc1cc2c(cc1C(=O)CCC(=O)O)CC1(C2)Cc2cc(CC)c(C(=O)CCC(=O)O)cc2C1 ?
> 100 µM (inactive)

====

molecules and their reported GI50
- System: UACC-62
- PROCEDURE_TEXT: NCI tumour cell line growth inhibition, 48 h
Calls of active or inactive are those of the source. Rule as the data show it: active = GI50 up to about 1.1 µM and inactive = higher.

// solved cases for GI50 follow
# MOLECULE, EXPERIMENTAL_SYSTEM, GI50
rows = [
    ("COc1cc(/C=C(/C#N)C(N)=O)ccc1O", "UACC-62", "> 100 µM (inactive)"),
    ("Cn1cnc(/C=C/C#N)c1", "UACC-62", "> 100 µM (inactive)"),
    ("c1ccc(-c2nc3ccccc3n3nnnc23)cc1", "UACC-62", "> 100 µM (inactive)"),
    ("COC1=C(OC)C(=O)C(Cc2c(Cl)nc3sc(C)cn23)=C(C)C1=O", "UACC-62", "11.6 µM (inactive)"),
    ("CCOC(=O)C(NCc1ccccc1)(NC(=O)c1ccccc1)C(F)(F)F (stereo not drawn)", "UACC-62", "> 100 µM (inactive)"),
]

Need GI50 of CSc1nncc(-c2cc3c(c(SC)n2)CCCC3)n1 , thanks.
> 100 µM (inactive)

Further, for C[C@H](CCC(=O)O)[C@H]1CC[C@H]2[C@@H]3[C@H](O)[C@H](O)[C@@H]4C[C@H](O)CC[C@]4(C)[C@H]3CC[C@]12C ?
> 100 µM (inactive)

Further, for CCC(CCCC[C@H]1CC[C@@H]2CC(=O)C[C@H]12)OC (stereo partly drawn) ?
76 µM (inactive)

====

- System: SNB-75
- PROCEDURE_TEXT: NCI tumour cell line growth inhibition, 48 h
Calls of active or inactive are those of the source. No stated cut-off is given here; in the data, active = GI50 up to about 1.1 µM and inactive = higher.
ENDPOINT_NAME: GI50

// solved cases for GI50 follow
# COMPOUND, GI50
measured = [
    ("CC(=O)NC1(c2cc3ccccc3s2)CCCCCC1", "31 µM (inactive)"),
    ("NC(=S)NS(=O)(=O)c1ccc(F)cc1", "> 100 µM (inactive)"),
    ("COC(=O)CCC(NC(=O)C(C)NC(=O)COC1C(O)C(OC(=O)CCNc2c3ccccc3nc3cccc([N+](=O)[O-])c23)OC(OCc2ccccc2)C1NC(C)=O)C(N)=O (stereo unspecified)", "> 10 µM (inactive)"),
]

Need GI50 of COc1cc(S(=O)(=O)N/N=C/C=C/c2ccccc2)c(OC)cc1NC(C)=O , thanks.
> 100 µM (inactive)

Further, for CC(=O)NNc1nc(C)c(C(/C=C/c2ccccc2O)=N/NC(=O)c2ccncc2)s1 ?
> 100 µM (inactive)

Further, for CCOC(=O)C(C)NC(=O)C(C)NC(=O)C(C)NC(=O)C(C)NC(=O)C(C)NC(=O)OCc1ccccc1 (stereo unspecified) ?
78.3 µM (inactive)

Further, for C=CCN1C(=O)/C(=C/c2ccc(Cl)cc2)N=C1SC/C=C/C ?
75.7 µM (inactive)

Further, for CC1(C)OC(C(C)(C)O)C(C(C)(C)O)O1 (stereo unspecified) ?
> 100 µM (inactive)

Further, for CCCCCCCCCCCCCCNCC(OC)OC ?
13.8 µM (inactive)
